# METHOD_SUMMARY: Solubility test
# Assay type: physicochemical
# STATED_CONDITIONS: 2 M KOH solution, aqueous buffer, thermodynamic from solid; read-out: Solubility
EXPERIMENTAL_ENDPOINT: solubility

Would you mind telling me what solubility value was observed for `O=C1c2cc(S(=O)(=O)[O-])ccc2-c2ccc(S(=O)(=O)[O-])cc21.[K+].[K+]` ?
< 50 mM

* * *

Let's look at some molecules and their measured solubility.
# METHOD_SUMMARY: Solubility test
# Assay type: physicochemical
# STATED_CONDITIONS: 2M NaOH
# Experimental: Solubility test: The dissolving solvent was added drop by drop to 1 mmol of testing powder with intermittent agitation with VWR Vertex mixer, until all powder was dissolved. The total mass of the solution was recorded. […] Specific gravity of the as-obtained solution was calculated, then the total volume of the as-obtained solution was calculated using calculated density and recorded total solution mass. […]
Reply numerically in mM, unit not repeated.

Past entries and their recorded results:
CHEMICAL_SMILES | UNIT_NAME | RESULT_VALUE
O=C(O)c1cc(F)cc2c1-c1c(cc(F)cc1S(=O)(=O)[O-])C2=O.[K+] | mM | 150
O=C(O)c1cc(S(=O)(=O)O)cc2c1-c1ccc(S(=O)(=O)O)cc1C2=O | mM | 800

From here, focus on the item given below.
Would you mind telling me what solubility value was observed for `O=C(O)c1ccc2c(c1)C(=O)c1cc(C(=O)O)ccc1-2` ?
40

* * *

# METHOD_SUMMARY: Solubility test
# Type: physicochemical
# STATED_CONDITIONS: thermodynamic from solid; disodium salt in pure water; read-out: Solubility
EXPERIMENTAL_ENDPOINT: solubility

Would you mind telling me what solubility value was observed for `O=C1c2cc(S(=O)(=O)[O-])ccc2-c2ccc(S(=O)(=O)[O-])cc21.[K+].[K+]` ?
≤ 240 mM

* * *

# METHOD_SUMMARY: Solubility test
# Assay type: physicochemical
# STATED_CONDITIONS: thermodynamic from solid; with agitation; copious precipitate after sitting overnight; read-out: Solubility (transparent homogeneous solution)
EXPERIMENTAL_ENDPOINT: solubility

Would you mind telling me what solubility value was observed for `O=C(O)c1cc(F)cc2c1-c1ccc(F)cc1C2=O` ?
≤ 1400 mM

* * *

# METHOD_SUMMARY: Solubility test
# Assay type: physicochemical
# STATED_CONDITIONS: 2 M NaOH solution, aqueous buffer, thermodynamic from solid; 2M NaOH; read-out: Solubility
# Method: Solubility test: The dissolving solvent was added drop by drop to 1 mmol of testing powder with intermittent agitation with VWR Vertex mixer, until all powder was dissolved. The total mass of the solution was recorded. […] Specific gravity of the as-obtained solution was calculated, then the total volume of the as-obtained solution was calculated using calculated density and recorded total solution mass. […]
EXPERIMENTAL_ENDPOINT: solubility (mM)
Reply numerically in mM, unit not repeated.

Past entries and their recorded results:
CHEMICAL_SMILES | solubility / mM
O=C(O)c1ccc2c(c1)C(=O)c1cc(S(=O)(=O)[O-])ccc1-2.[K+] | 1100
O=C(O)c1cccc2c1-c1ccc(S(=O)(=O)O)cc1C2=O | 1500

From here, focus on the item given below.
Would you mind telling me what solubility value was observed for `N#Cc1nc2c(nc1O)-c1ccccc1C2=O` ?
1000

* * *

# METHOD_SUMMARY: Solubility test
# Format: physicochemical
# STATED_CONDITIONS: 2 M NaOH solution, aqueous buffer, thermodynamic from solid; read-out: Solubility
EXPERIMENTAL_ENDPOINT: solubility

Would you mind telling me what solubility value was observed for O=C1c2cc(S(=O)(=O)[O-])ccc2-c2ccc(S(=O)(=O)[O-])cc21.[K+].[K+] [DSFL] ?
< 50 mM
